meta.source: patent US8829007B2

# Test system: influenza A virus (A/PR/8/34)
# experiment: microbe, parasite or virus in culture
# Type: cell-based
# experimental_context: MDCK cells infected with A/PR/8/34; survival of infected cells; class symbols; read-out: IC50 (mean all)
measurement_name: IC50

- COC(=O)CCC(=O)N1CCCC(CNc2ccnc(-c3c[nH]c4ncc(Cl)cc34)n2)C1 (stereo not drawn): 5 to 20 µM
- CC(=O)N1CCCC(CNc2ccnc(-c3c[nH]c4ncc(Cl)cc34)n2)C1 (stereo not drawn): < 5 µM
- NC1CCCC(Nc2ccnc(-c3c[nH]c4ncc(Cl)cc34)n2)C1 (stereo not drawn): > 20 µM
- CS(=O)(=O)N1CC(Nc2nc(-c3c[nH]c4ncc(Cl)cc34)ncc2F)C1: > 20 µM
- CC1(O)CCC[C@H](Nc2nc(-c3c[nH]c4ncc(Cl)cc34)ncc2F)C1 (stereo partly drawn) [Compound 572]: < 5 µM

q: Write down IC50 measured for item CC1(O)CCC[C@H](Nc2nc(-c3c[nH]c4ncc(Cl)cc34)ncc2F)C1 (stereo partly drawn) [Compound 571]
a: < 5 µM

---

# Tested on: influenza A virus (A/PR/8/34)
# experiment: microbe, parasite or virus in culture
# Format: cell-based
# experimental_context: MDCK cells infected with A/PR/8/34, cell protection (CPE); read-out: IC50 (mean all)
pIC50: −log10 of the molar value.
measurement_name: pIC50

- NC1CCCCC1Nc1nc(-c2c[nH]c3ncccc23)ncc1F (centres unmarked) [Compound 206]: > 5.30

The record that follows has no pIC50 shown yet.
q: Write down pIC50 measured for item NC1CCCCC1Nc1nc(-c2c[nH]c3ncccc23)ncc1F (centres unmarked) [Compound 4]
a: < 4.70

---

# Tested on: A/PR/8/34 influenza virus
# experiment: microbe, parasite or virus in culture
# Type: cell-based
# experimental_context: Influenza A virus, PR/8, MDCK, bDNA assay, A/PR/8/34 influenza virus replication in MDCK cells; class symbols; read-out: EC50 (mean all)
Structures can show the parent of a compound that is named as a salt.
measurement_name: EC50

* C[C@]1(C(=O)O)CCCC[C@@H]1Nc1nc(-c2c[nH]c3ncc(Cl)cc23)ncc1F (stereo in doubt) | < 5 µM
* O=C(N[C@@H]1CCC[C@H](Nc2nc(-c3c[nH]c4ncc(Cl)cc34)ncc2F)C1)C1CCCCO1 (stereo partly shown) [Compound 651, hydrochloride] | < 5 µM
* CCC1(O)CCCC(Nc2nc(-c3c[nH]c4ncc(Cl)cc34)ncc2F)C1 (stereo not shown) | < 5 µM

q: Write down EC50 measured for item N#CCCN1CCC[C@@H](CNc2nc(-c3c[nH]c4ncc(Cl)cc34)ncc2F)C1
a: > 10 µM

q: Write down EC50 measured for item N#CCCCN1CCC[C@@H](CNc2nc(-c3c[nH]c4ncc(Cl)cc34)ncc2F)C1
a: > 10 µM

q: Write down EC50 measured for item O=C(O)[C@@H]1CCC[C@H](Nc2nc(-c3c[nH]c4ncc(Cl)cc34)ncc2F)C1
a: < 5 µM

---

# Tested on: A/PR/8/34 influenza virus
# experiment: microbe, parasite or virus in culture
# Type: cell-based
# experimental_context: Influenza A virus, PR/8, MDCK, bDNA assay, A/PR/8/34 influenza virus replication in MDCK cells; class symbols; read-out: EC50 (mean all)
pEC50: −log10 of the molar value.
measurement_name: pEC50

Examples from the recorded data:
- NC(=O)C(O)CN1CCCC(Nc2nc(-c3c[nH]c4ncc(Cl)cc34)ncc2F)C1 (stereo not shown): > 5.30
- COCCN1CCCC(Nc2nc(-c3c[nH]c4ncc(Cl)cc34)ncc2F)C1 (stereo not shown): > 5.30
- O=C(N[C@@H]1CCC[C@H](Nc2nc(-c3c[nH]c4ncc(Cl)cc34)ncc2F)C1)OCC1CCOC1 (stereo partly shown): > 5.30
- OC[C@H]1CC(Nc2nc(-c3c[nH]c4ncc(Cl)cc34)ncc2F)[C@H](O)[C@@H]1O (stereo partly shown): < 5.48

q: Write down pEC50 measured for item CC(C)(C)c1nc(-c2c[nH]c3ncc(Cl)cc23)nc(N[C@H]2CCCC[C@@H]2C(=O)O)c1F
a: > 5.30

q: Write down pEC50 measured for item O[C@@H]1[C@@H](O)CCC[C@H]1Nc1nc(-c2c[nH]c3ncc(Cl)cc23)ncc1F
a: 5.00 to 5.30

q: Write down pEC50 measured for item N#Cc1cnc(-c2c[nH]c3ncc(Cl)cc23)nc1N[C@H]1CCCN(CC(N)=O)C1
a: 5.00 to 5.30
